Reported Ki on the protein given by its sequence for assorted molecules, compiled from publications.
Protein target, amino acids: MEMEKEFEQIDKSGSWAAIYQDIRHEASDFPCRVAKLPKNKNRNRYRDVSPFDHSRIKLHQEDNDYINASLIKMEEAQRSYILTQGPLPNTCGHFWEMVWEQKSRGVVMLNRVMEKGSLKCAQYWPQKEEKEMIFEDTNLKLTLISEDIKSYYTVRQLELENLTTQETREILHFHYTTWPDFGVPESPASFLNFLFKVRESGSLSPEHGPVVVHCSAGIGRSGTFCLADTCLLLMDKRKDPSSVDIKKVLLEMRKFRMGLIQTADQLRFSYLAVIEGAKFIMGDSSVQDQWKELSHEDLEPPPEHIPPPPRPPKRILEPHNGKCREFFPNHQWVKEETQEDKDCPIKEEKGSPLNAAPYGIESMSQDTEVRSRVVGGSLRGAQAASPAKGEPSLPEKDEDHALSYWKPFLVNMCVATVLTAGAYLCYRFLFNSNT
Numbers only, in µM.

>>> print(df.to_string())
                            molecule_smiles  test_result
0          O=P(O)(O)C(F)(F)c1cc2ccccc2cc1Br          179
1    O=C(O)c1ccc2cc(C(F)(F)P(=O)(O)O)ccc2c1           22
2  CCCCCNC(=O)[C@@H](Cc1ccc(N(C(=O)C(=O)O)c2ccccc2C(=O)O)c(/C=C/C(N)=O)c1)NC(=O)NC(C)C        0.316
3  O=C(O)COc1c(C(=O)O)sc(-c2ccc3ccoc3c2)c1Br            5

Attention now shifts to the item below.
(Q) Indicate the recorded Ki value for this molecule: O=C(O)COc1cc2ccc(C(=O)O)cc2cc1C(=O)O
(A) 250
